Target Or System: Thioredoxin reductase 1, cytoplasmic (Rattus norvegicus)
Test Protocol: qHTS Assay for Inhibitors of Mammalian Selenoprotein Thioredoxin Reductase 1 (TrxR1): qHTS; note: nearly all actives have a fitted effect of over 65% in size
Test Settings: recombinant rTrxR1, NADPH fluorescence consumption, selenite substrate; series mostly up to 114 µM
Among all 390,000 compounds or so, about 4,000 (1%) were called active. Another 4% or so got no clear call; they are omitted. Calls come from the whole dose curve; as a rule, active = well fitted inhibition curve with a large enough effect; inconclusive = small, poorly fitted or top-dose-only effect; inactive = no such curve, though single readings can be large or run the other way. For the sample, actives were picked, then their nearest neighbours and some compounds at random.
Give one outcome, nothing more. List: yes (1) (active), no (0) (inactive)

Solved cases below.
Hi, do you know how O=C(CCS(=O)(=O)c1ccccc1)N(Cc1cccnc1)c1nc2c(F)cccc2s1 came out in this test?
yes (1)

Hey, what did the test say about COc1ccc(-c2nc(CS(=O)CC(=O)NCc3ccccn3)c(C)o2)cc1 (stereo not given) ?
yes (1)

Dear all, I need the recorded test outcome for CCOc1ccccc1NC(=O)CCS(=O)(=O)c1cccc2nsnc12 , thank you.
no (0)

// outcome(item) with item = COc1ccccc1CN1CCNC(=O)C1CC(=O)N(C)CC1CCOCC1 (stereo not given)
no (0)

Which result was noted for this compound in the test: COc1ccc(-c2nc(CS(=O)CC(=O)N3CCc4ccccc4C3)c(C)o2)cc1 (stereo not given)
yes (1)

Query: recorded result category for COc1cccc(CNC(=O)Cn2c(=O)c3cccn3c3ccc(F)cc32)c1OC in this test
no (0)

Others:
Recorded test call requested for Oc1ccc(CNc2ccccc2O)cc1
yes (1)

Call for entry CC1CCCN(c2cc3c(cc2F)c(=O)c(S(=O)(=O)c2cccc(Cl)c2)cn3Cc2ccccc2)C1 (stereo not given) :
no (0)

Per the records of this test, what outcome belongs to N#Cc1cccc(CN2CCC(=O)N(CCO)CC2)c1 ?
no (0)
